Reference for the values: patent US8754071B2

- measured on: c-kit (Homo sapiens, UniProt P10721)
- Construct: human Mo7e cells which endogenously express c-kit; endogenous in cells; host or cells: human Mo7e cells (promegakaryocytic leukemia line), stimulated with human recombinant SCF
- Sequence (P10721 26-976): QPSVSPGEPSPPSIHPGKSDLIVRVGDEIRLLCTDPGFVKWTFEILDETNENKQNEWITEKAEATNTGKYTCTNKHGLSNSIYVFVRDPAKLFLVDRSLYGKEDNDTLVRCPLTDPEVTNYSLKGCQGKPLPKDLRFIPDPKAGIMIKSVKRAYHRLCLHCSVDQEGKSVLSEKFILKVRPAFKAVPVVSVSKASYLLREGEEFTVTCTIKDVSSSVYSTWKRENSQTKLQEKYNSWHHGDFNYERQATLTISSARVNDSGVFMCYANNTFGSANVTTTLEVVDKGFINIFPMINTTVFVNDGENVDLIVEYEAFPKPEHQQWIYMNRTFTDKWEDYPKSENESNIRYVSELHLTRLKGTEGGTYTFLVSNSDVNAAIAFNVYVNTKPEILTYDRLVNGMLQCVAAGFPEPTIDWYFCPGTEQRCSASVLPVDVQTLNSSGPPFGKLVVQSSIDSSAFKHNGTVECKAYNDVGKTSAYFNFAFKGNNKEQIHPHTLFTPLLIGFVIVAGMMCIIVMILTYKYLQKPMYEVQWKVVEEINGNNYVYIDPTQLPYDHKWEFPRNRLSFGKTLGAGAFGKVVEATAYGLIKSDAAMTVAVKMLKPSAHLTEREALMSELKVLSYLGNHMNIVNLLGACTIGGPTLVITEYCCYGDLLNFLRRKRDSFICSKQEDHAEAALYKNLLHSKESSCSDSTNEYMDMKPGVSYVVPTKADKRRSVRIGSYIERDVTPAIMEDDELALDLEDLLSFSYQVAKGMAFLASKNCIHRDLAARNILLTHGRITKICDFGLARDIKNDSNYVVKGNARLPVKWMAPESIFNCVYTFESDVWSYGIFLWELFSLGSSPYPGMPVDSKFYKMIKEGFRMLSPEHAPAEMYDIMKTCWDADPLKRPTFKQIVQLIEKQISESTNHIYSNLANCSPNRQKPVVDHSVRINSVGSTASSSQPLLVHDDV
- measurement description: Mo7e cell proliferation assay (SCF dependent proliferation)
- Assay type: cell-based
- measurement context: Table 1; human Mo7e cells stimulated with SCF, 48 hours, CellTiter Glo; 1% FBS; read-out: c-kit (Mo7e)
recorded endpoint: pIC50
Scale note: pIC50 = -log10(concentration in M).

*Q* Lab note: need pIC50 for Cc1ccc(-c2noc(C3CCOC3)n2)cc1NC(=O)c1cnc2ccccn12 (centres unmarked) [F7] on c-kit (Homo sapiens, UniProt P10721), anyone have it?
*A* 7.11

*Q* Lab note: need pIC50 for Cc1ccc(-c2noc(C3CCN(S(C)(=O)=O)CC3)n2)cc1NC(=O)c1cnc2ccccn12 [F34] on c-kit (Homo sapiens, UniProt P10721), anyone have it?
*A* 7.02

*Q* Lab note: need pIC50 for Cc1ccc(-c2noc([C@H](C)N3CC(F)(F)C3)n2)cc1NC(=O)c1cnc2ccccn12 [F50] on c-kit (Homo sapiens, UniProt P10721), anyone have it?
*A* 7.11

*Q* Lab note: need pIC50 for Cc1ccc(-c2noc(C[C@@H]3CCCN3S(C)(=O)=O)n2)cc1NC(=O)c1cnc2ccccn12 [F41] on c-kit (Homo sapiens, UniProt P10721), anyone have it?
*A* 7.04

*Q* Lab note: need pIC50 for COC(=O)N1CC(c2nc(-c3ccc(C)c(NC(=O)c4cnc5cc(C(F)(F)F)ccn45)c3)no2)C1 [F57] on c-kit (Homo sapiens, UniProt P10721), anyone have it?
*A* 6.89

*Q* Lab note: need pIC50 for Cc1ccc(-c2noc([C@@H]3CC(F)(F)CN3S(C)(=O)=O)n2)cc1NC(=O)c1cnc2ccccn12 [F32] on c-kit (Homo sapiens, UniProt P10721), anyone have it?
*A* 7.26

*Q* Lab note: need pIC50 for [2H]c1ccc2ncc(C(=O)Nc3cc(-c4noc(C5CN(C(=O)OC)C5)n4)ccc3C)n2c1 [F98] on c-kit (Homo sapiens, UniProt P10721), anyone have it?
*A* 7.37

*Q* Lab note: need pIC50 for COC(=O)N1CC(c2nc(-c3ccc(C)c(NC(=O)c4cnc5ccc(F)cn45)c3)no2)C1 [F55] on c-kit (Homo sapiens, UniProt P10721), anyone have it?
*A* 7.27

*Q* Lab note: need pIC50 for Cc1ccc(-c2nc(N3C[C@@H]4C[C@H]3CO4)no2)cc1NC(=O)c1cnc2ccccn12 [F94] on c-kit (Homo sapiens, UniProt P10721), anyone have it?
*A* 7.04

*Q* Lab note: need pIC50 for COC(=O)N1CC(c2nc(-c3ccc(C)c(NC(=O)c4cnc5ccc(CCC(C)(C)O)cn45)c3)no2)C1 [F67] on c-kit (Homo sapiens, UniProt P10721), anyone have it?
*A* 7.54

*Q* Lab note: need pIC50 for Cc1nc(C)c(-c2ccc3ncc(C(=O)Nc4cc(-c5noc(CN6CC(C#N)C6)n5)ccc4C)n3c2)s1 [F99] on c-kit (Homo sapiens, UniProt P10721), anyone have it?
*A* 7.31

*Q* Lab note: need pIC50 for [2H]c1ccn2c(C(=O)Nc3cc(-c4noc(C5CN(C(=O)OC)C5)n4)ccc3C)cnc2c1 [F97] on c-kit (Homo sapiens, UniProt P10721), anyone have it?
*A* 7.36

*Q* Lab note: need pIC50 for Cc1ccc(-c2noc([C@@H]3CCCN3S(C)(=O)=O)n2)cc1NC(=O)c1cnc2ccccn12 [F36] on c-kit (Homo sapiens, UniProt P10721), anyone have it?
*A* 7.03

*Q* Lab note: need pIC50 for [2H]C([2H])([2H])c1ccn2c(C(=O)Nc3cc(-c4noc(C5CN(C(=O)OC)C5)n4)ccc3C)cnc2c1 [F80] on c-kit (Homo sapiens, UniProt P10721), anyone have it?
*A* 7.36

*Q* Lab note: need pIC50 for Cc1ccc(-c2noc(N3CC(F)(F)C3)n2)cc1NC(=O)c1cnc2ccccn12 [F78] on c-kit (Homo sapiens, UniProt P10721), anyone have it?
*A* 7.26

*Q* Lab note: need pIC50 for Cc1ccc(-c2nc(N3CCC3)no2)cc1NC(=O)c1cnc2ccccn12 [F1] on c-kit (Homo sapiens, UniProt P10721), anyone have it?
*A* 7.31

*Q* Lab note: need pIC50 for O=C(Nc1cc(-c2noc(CN3CCC(F)(F)CC3)n2)ccc1F)c1cnc2ccccn12 [F46] on c-kit (Homo sapiens, UniProt P10721), anyone have it?
*A* 7.14

----------
Hi there, I'd appreciate the recorded IC50 for every entry that follows.
- measured on: c-kit (Homo sapiens, UniProt P10721)
- Construct: human Mo7e cells which endogenously express c-kit; endogenous in cells; host or cells: human Mo7e cells (promegakaryocytic leukemia line), stimulated with human recombinant SCF
- measurement description: Mo7e cell proliferation assay (SCF dependent proliferation)
- Assay type: cell-based
- measurement context: Table 2; human Mo7e cells stimulated with SCF, 48 hours, CellTiter Glo; 1% FBS; read-out: c-kit (Mo7e)
Give the value, in units of nM, as a plain number.

*Q* Query (compound): Cc1ccc(-c2noc([C@@H]3CCN3C(=O)OC3(C)CC3)n2)cc1NC(=O)c1cnc2ccccn12 [F202] ; field requested: IC50
*A* 208

*Q* Query (compound): COC(=O)N1CC[C@H]1c1nc(-c2ccc(C)c(NC(=O)c3cnc4ccc(C)cn34)c2)no1 [F262] ; field requested: IC50
*A* 309

*Q* Query (compound): Cc1ccc(-c2noc([C@@H]3COCCN3C(=O)OC(C)(C)C)n2)cc1NC(=O)c1cnc2ccccn12 [F116] ; field requested: IC50
*A* 792

*Q* Query (compound): Cc1ccc(-c2noc(C3(C)COC3)n2)cc1NC(=O)c1cnc2ccccn12 [F128] ; field requested: IC50
*A* 140

*Q* Query (compound): COC(=O)N1CCO[C@@H](c2nc(-c3ccc(C)c(NC(=O)c4cnc5ccccn45)c3)no2)C1 [F198] ; field requested: IC50
*A* 142

*Q* Query (compound): Cc1ccc(-c2noc([C@H]3CCCN(S(C)(=O)=O)C3)n2)cc1NC(=O)c1cnc2ccccn12 [F209] ; field requested: IC50
*A* 148

*Q* Query (compound): Cc1ccc(-c2noc(CCC(=O)N3CCC(F)(F)C3)n2)cc1NC(=O)c1cnc2ccccn12 [F125] ; field requested: IC50
*A* 426

----------
Hi there, I'd appreciate the recorded IC50 for every entry that follows.
- measured on: c-kit (Homo sapiens)
- Construct: human Mo7e cells which endogenously express c-kit; endogenous in cells; host or cells: human Mo7e cells (promegakaryocytic leukemia line), stimulated with human recombinant SCF
- measurement description: Mo7e cell proliferation assay (SCF dependent proliferation)
- Format: cell-based
- measurement context: Table 1; human Mo7e cells stimulated with SCF, 48 hours, CellTiter Glo; 1% FBS; read-out: c-kit (Mo7e)
Give the value, in units of nM, as a plain number.

*Q* Query (compound): "COC(=O)N1CC(c2nc(-c3ccc(C)c(NC(=O)c4cnc5ccc(N6CCOCC6)cn45)c3)no2)C1" ; field requested: IC50
*A* 40

*Q* Query (compound): Cc1ccc(-c2noc(CC3CCCOC3)n2)cc1NC(=O)c1cnc2ccccn12 (stereo not shown) ; field requested: IC50
*A* 40

*Q* Query (compound): "COC(=O)N1CC(c2nc(-c3ccc(C)c(NC(=O)c4cnc5ccc(CCCC#N)cn45)c3)no2)C1" ; field requested: IC50
*A* 33

*Q* Query (compound): "Cc1ccc(-c2noc(CN3CCOCC3)n2)cc1NC(=O)c1cnc2ccccn12" ; field requested: IC50
*A* 73

----------
- measured on: c-kit (Homo sapiens)
- Construct: human Mo7e cells which endogenously express c-kit; endogenous in cells; host or cells: human Mo7e cells (promegakaryocytic leukemia line), stimulated with human recombinant SCF
- measurement description: Mo7e cell proliferation assay (SCF dependent proliferation)
- Type: cell-based
- measurement context: Table 2; human Mo7e cells stimulated with SCF, 48 hours, CellTiter Glo; 1% FBS; read-out: c-kit (Mo7e)
IC50 strictly under 300 nM means Satisfied; at 300 nM or over means Not satisfied.

*Q* In the record for Cc1ccc(-c2noc(C3CCCNC3)n2)cc1NC(=O)c1cnc2ccccn12 (centres unmarked) [F274] , is IC50 less than 300 nM?
*A* Not satisfied

*Q* In the record for "CC(=O)N1CCOC[C@H]1c1nc(-c2ccc(C)c(NC(=O)c3cnc4ccccn34)c2)no1" , is IC50 less than 300 nM?
*A* Not satisfied

*Q* In the record for "CC(=O)N1CCC(c2nc(-c3ccc(C)c(NC(=O)c4cnc5ccccn45)c3)no2)CC1" , is IC50 less than 300 nM?
*A* Not satisfied

*Q* In the record for "Cc1ccc(-c2noc(CCN3CCOCC3)n2)cc1NC(=O)c1cnc2ccccn12" , is IC50 less than 300 nM?
*A* Satisfied

*Q* In the record for "Cc1ccc(-c2noc([C@@H]3COCCN3S(C)(=O)=O)n2)cc1NC(=O)c1cnc2ccccn12" , is IC50 less than 300 nM?
*A* Not satisfied

*Q* In the record for CC(=O)N1CCOC(c2nc(-c3ccc(C)c(NC(=O)c4cnc5ccccn45)c3)no2)C1 (centres unmarked) , is IC50 less than 300 nM?
*A* Not satisfied

*Q* In the record for Cc1ccc(-c2noc(C3CCN(S(C)(=O)=O)C3)n2)cc1NC(=O)c1cnc2ccccn12 (centres unmarked) , is IC50 less than 300 nM?
*A* Satisfied

*Q* In the record for "Cc1ccc(-c2noc([C@@H]3CNCCO3)n2)cc1NC(=O)c1cnc2ccccn12" , is IC50 less than 300 nM?
*A* Not satisfied

*Q* In the record for "Cc1ccc(-c2noc([C@@H]3CCC(=O)N3)n2)cc1NC(=O)c1cnc2ccccn12" , is IC50 less than 300 nM?
*A* Not satisfied

*Q* In the record for "COC1CN(C(=O)OCc2nc(-c3ccc(C)c(NC(=O)c4cnc5ccccn45)c3)no2)C1" , is IC50 less than 300 nM?
*A* Satisfied

*Q* In the record for "Cc1ccc(-c2noc([C@@H]3CCCN3C(=O)OC(C)(C)C)n2)cc1NC(=O)c1cnc2ccccn12" , is IC50 less than 300 nM?
*A* Not satisfied

*Q* In the record for "COC(=O)N1CCC[C@H]1c1nc(-c2ccc(C)c(NC(=O)c3cnc4ccccn34)c2)no1" , is IC50 less than 300 nM?
*A* Not satisfied

*Q* In the record for "Cc1ccc(-c2noc(CC3CN(C(=O)OC(C)(C)C)C3)n2)cc1NC(=O)c1cnc2ccccn12" , is IC50 less than 300 nM?
*A* Not satisfied

*Q* In the record for "Cc1ccc(-c2noc(C3CN(C(=O)OC4(C)CC4)C3)n2)cc1NC(=O)c1cnc2ccccn12" , is IC50 less than 300 nM?
*A* Not satisfied

*Q* In the record for "Cc1ccc(-c2noc(C3CN(S(=O)(=O)NC(=O)OC(C)(C)C)C3)n2)cc1NC(=O)c1cnc2ccccn12" , is IC50 less than 300 nM?
*A* Satisfied

*Q* In the record for "COC(=O)N1CC[C@H]1c1nc(-c2ccc(C)c(NC(=O)c3cnc4ccccn34)c2)no1" , is IC50 less than 300 nM?
*A* Not satisfied

*Q* In the record for "Cc1ccc(-c2noc(CNC(=O)[C@H]3CCCO3)n2)cc1NC(=O)c1cnc2ccccn12" , is IC50 less than 300 nM?
*A* Satisfied

*Q* In the record for "COC(=O)N1CC(c2nc(-c3ccc(C)c(NC(=O)c4cnc5ccc(CO)cn45)c3)no2)C1" , is IC50 less than 300 nM?
*A* Not satisfied

*Q* In the record for Cc1ccc(-c2noc(C3CN(C(=O)OC(C)(C)C)CCO3)n2)cc1NC(=O)c1cnc2ccccn12 (centres unmarked) [F277] , is IC50 less than 300 nM?
*A* Not satisfied

*Q* In the record for "COC(=O)N1CC(F)(F)C[C@H]1c1nc(-c2ccc(C)c(NC(=O)c3cnc4ccccn34)c2)no1" , is IC50 less than 300 nM?
*A* Satisfied

*Q* In the record for "COC(=O)N1CC(C)(c2nc(-c3ccc(C)c(NC(=O)c4cnc5ccccn45)c3)no2)C1" , is IC50 less than 300 nM?
*A* Satisfied

*Q* In the record for Cc1ccc(-c2noc(C3CN(C(=O)OC(C)(C)C)CCO3)n2)cc1NC(=O)c1cnc2ccccn12 (centres unmarked) [F175] , is IC50 less than 300 nM?
*A* Not satisfied

*Q* In the record for "Cc1ccc(-c2noc(CNC(=O)[C@@H]3CCCO3)n2)cc1NC(=O)c1cnc2ccccn12" , is IC50 less than 300 nM?
*A* Satisfied
